Give inhibition at 10 µM for every item shown.
# Tested on: Amine oxidase [flavin-containing] A (Homo sapiens, UniProt P21397)
# Sequence (P21397 whole entry): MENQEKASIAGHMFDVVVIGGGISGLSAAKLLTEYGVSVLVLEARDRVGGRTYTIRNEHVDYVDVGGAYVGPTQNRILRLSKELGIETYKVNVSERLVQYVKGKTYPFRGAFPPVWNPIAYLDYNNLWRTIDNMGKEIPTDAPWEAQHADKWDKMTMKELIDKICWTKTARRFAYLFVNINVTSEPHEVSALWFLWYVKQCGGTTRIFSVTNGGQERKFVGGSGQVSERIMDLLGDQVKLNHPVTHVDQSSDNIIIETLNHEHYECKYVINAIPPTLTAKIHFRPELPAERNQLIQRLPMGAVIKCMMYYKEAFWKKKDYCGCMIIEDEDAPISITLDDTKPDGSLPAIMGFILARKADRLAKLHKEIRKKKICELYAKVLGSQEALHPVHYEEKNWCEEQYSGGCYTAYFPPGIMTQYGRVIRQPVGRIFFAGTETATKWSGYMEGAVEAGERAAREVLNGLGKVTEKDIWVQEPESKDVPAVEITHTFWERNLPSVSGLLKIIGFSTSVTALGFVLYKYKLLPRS
# Protocol summary: Inhibition of recombinant human MAO-A expressed in baculovirus infected BTI insect cells at 10 uM preincubated for 30 mins followed by addition of p-tyramine as substrate measured over 45 mins by Amplex Red MAO assay relative to control
# Reported conditions: 0.75 h
Numbers only, in %.

Example entries begin here.
[
  {
    "Smiles repr": "COc1cccc2c1CC[C@H](N1CCn3c(nc4c3c(=O)n(C)c(=O)n4C)C1)C2",
    "Unit annotation": "%",
    "inhibition at 10 µM": 2
  },
  {
    "Smiles repr": "Cn1c(=O)c2c(nc3n2CCN(CCc2cccc(Cl)c2)C3)n(C)c1=O",
    "Unit annotation": "%",
    "inhibition at 10 µM": 13
  },
  {
    "Smiles repr": "Cn1c(=O)c2c(nc3n2CCN([C@@H]2CCCc4ccccc42)C3)n(C)c1=O",
    "Unit annotation": "%",
    "inhibition at 10 µM": 14
  }
]

Hi, could you look up inhibition at 10 µM for each item in my list?
1. Cn1c(=O)c2c(nc3n2CCN(c2cccc4ccccc24)C3)n(C)c1=O
2. Cn1c(=O)c2c(nc3n2CCN(CCCn2cccc2)C3)n(C)c1=O
3. Cn1c(=O)c2c(nc3n2CCN(CC#Cc2cccc(Cl)c2)C3)n(C)c1=O
4. Cn1c(=O)c2c(nc3n2CCN(Cc2csc(-c4cccc(Cl)c4)n2)C3)n(C)c1=O
5. Cn1c(=O)c2c(nc3n2CCN(Cc2ccc(Cl)c(Cl)c2)C3)n(C)c1=O
6. Cn1c(=O)c2c(nc3n2CCN(CCn2cccc2)C3)n(C)c1=O
7. Cn1c(=O)c2c(nc3n2CCN(CCc2ccc(Cl)c(Cl)c2)C3)n(C)c1=O
8. Cn1c(=O)c2c(nc3n2CCN(CCc2cccs2)C3)n(C)c1=O

[out]
1. 16
2. 7
3. 19
4. -13
5. 5
6. 14
7. 14
8. 5

inhibition at 10 µM recorded for this compound, Cn1c(=O)c2c(nc3n2CCN(CCc2ccccc2Cl)C3)n(C)c1=O , is 11
